Tested on: CAKI-1 renal
testSummary: NCI-60 one-dose screen, 48 h (100 = growth as untreated, 0 = no growth, -100 = all killed)
measurementContext: 10 µM unless noted
Compounds without any hit were thinned out: in the full panel of roughly 83,000, 20% have a hit.
Please go through the items and note down their growth.
One number for each entry, in %.

{"columns": ["structureSmilesString", "growth (%)"],
 "data": [
  ["O=C(CSc1nc2ccccc2c(=O)n1-c1ccccc1)N/N=C/c1ccc(Oc2ccc(Br)cc2)cc1", 70.8],
  ["Cc1ccc(-c2nc(SCC(=O)c3ccccc3)nc(Nc3ccc(S(N)(=O)=O)cc3)c2C#N)cc1", 51.5],
  ["COc1ccc(/C=N/NC(=O)CSc2nc(-c3cnccn3)cc(-c3cccs3)c2C#N)cc1OC", 88.1],
  ["CCN(CC)S(=O)(=O)c1ccc(-c2nc(C(Cl)Cl)nc3cc(C)nn23)cc1", 29.6]
]}

// batch mode: one growth value per listed entry
1. N#C/C(=C\c1ccc(-c2ccc(Cl)c(Cl)c2)o1)C(=O)Nc1ncc(Cc2ccc(Cl)cc2)s1
2. Clc1ccc2[nH]cc(-c3nn4cc(-c5ccncc5)nc4s3)c2c1
3. COc1ccc(-c2c3c(cn2Cc2cccc(OC)c2)-c2oncc2CCC3)cc1
4. O=S(=O)(Oc1ccc(-c2cn3ccoc3n2)cc1)c1cccc(C(F)(F)F)c1

Reply:
57.4
54.5
76.1
86.9

Ask: Please tell me the measured growth for `CC(C)(C)OC(=O)Nc1ccc(-c2cccc(Oc3ccc4nnc(Cl)n4n3)c2)cc1` ; system: CAKI-1 renal.
Reply: 83.6

###

Test system: HS 578T breast
testSummary: NCI-60 one-dose screen, 48 h (100 = growth as untreated, 0 = no growth, -100 = all killed)
measurementContext: 10 µM unless noted
Compounds without any hit were thinned out: in the full panel of roughly 83,000, 20% have a hit.
measurementLabel: growth (%)
Numbers only, in %.

Take a look at these entries with their results.
{"columns": ["compound", "displayUnit", "growth"],
 "data": [
  ["CCc1cc2c(cc1Cl)nc1c(=O)[nH]c(=O)nc-1n2CCOCC(C)C", "%", 98.2],
  ["Cc1ccc2c(n1)C(=O)C(Cl)=C(Nc1ccc(C#N)cc1)C2=O", "%", 97.7],
  ["CCc1cccc2c3c(sc12)C(c1ccc(F)cc1)C(C#N)=C(/N=C/c1ccc(Cl)cc1)O3 (stereo not given)", "%", -1.77],
  ["O=C(CCCCCCNC(=O)c1csc(Br)n1)NO", "%", 58.3]
]}

With those in mind, consider the next compound.
Ask: Output measured growth for this item: `COc1ccc(-c2c(C(N)=O)c(N)n(Cc3nc4ccccc4[nH]3)c(=O)c2C#N)c(OC)c1`
Reply: 99.2

###

Answer each item with its documented growth.
System: M14 melanoma
testSummary: NCI-60 one-dose screen, 48 h (100 = growth as untreated, 0 = no growth, -100 = all killed)
measurementContext: 10 µM unless noted
Compounds without any hit were thinned out: in the full panel of roughly 83,000, 20% have a hit.
Answers are plain numbers, in %.

Sample answers from the record:
{"columns": ["compound", "measurementTarget", "testValue"],
 "data": [
  ["O=S1SC(c2ccccc2)=NN1c1cc(F)cc(F)c1 (centres undefined)", "M14 melanoma", 20.6],
  ["O=S(=O)(Oc1ccc(-c2cn3ccoc3n2)cc1)C1CCCCC1", "M14 melanoma", 104],
  ["Cc1ccc2c(n1)C(=O)C(Cl)=C(Nc1cccc(C)c1C)C2=O", "M14 melanoma", -29.2],
  ["Cc1cc2nc3c4cc(C#N)ccc4n(CCN(C)C)c3nc2cc1C", "M14 melanoma", -83.3]
]}

# batch size: 5; output growth per entry
1. CN1CCN(c2ccc(Nc3nc(NCCNS(=O)(=O)c4ccc5ccccc5c4)c4sccc4n3)cc2)CC1
2. CC(=O)OC[C@]12CC[C@@H](C(=O)/C=C/c3cccnc3)[C@@H]1[C@H]1CC[C@@H]3[C@@]4(C)CC[C@H](OC(C)=O)C(C)(C)[C@@H]4CC[C@@]3(C)[C@]1(C)CC2
3. O=C(CCl)Nc1ccc(NC(=O)c2cc(Cl)ccc2O)c(Cl)c1
4. CCC(=C(c1ccc(OCCN(C)C)cc1)c1ccc(OCCN(C)C)cc1)c1ccc(Cl)cc1
5. CCN(CC)CCOc1ccc(C(=C(c2ccccc2)C2CCCC2)c2ccc(OCCN(CC)CC)cc2)cc1

Reply:
1. -82.6
2. 12.2
3. 76.6
4. -66.3
5. 30.8

FYI, the data here is from PubChem BioAssay (NCI).
